- System: AGS gastric carcinoma cells [heterozygous G12D]
- TEST PROTOCOL: Cancer cell line proliferation (CellTiter-Glo), AGS
- Type: cell-based
- CONDITION LABEL: Homo sapiens, 72 hr treatment, read-out: AGS CTG (EC50)
ASSAY METRIC: EC50

The cases that follow already have their EC50 on record.
>>> readout_value("CCNC(=O)c1nnc(-c2cc(C(C)C)c(O)cc2O)n1-c1ccc(CN2CCN([C@H]3C[C@@H](COc4nc(N5CC6CNC(C6)C5)c5cnc(-c6cccc7cccc(C)c67)c(F)c5n4)N(C)C3)CC2)cc1 (some centres unmarked) [Compound 69]")
"100 to 1000 nM"
>>> readout_value("C#Cc1cccc2cccc(-c3ncc4c(N5CC6CCC(C5)N6)nc(OC[C@@H]5CC[C@H](CN6CCN(Cc7ccc(-n8c(C(=O)NCC)nnc8-c8cc(C(C)C)c(O)cc8O)cc7)CC6)N5C)nc4c3F)c12 [Compound 16]")
"< 100 nM"
>>> readout_value("CC(C)c1cc(C(=O)N2Cc3ccc(CN4CCN([C@H]5C[C@@H](COc6nc(N7CC8CCC(C7)N8)c7cnc(-c8cccc9cccc(C#N)c89)c(F)c7n6)N(C)C5)CC4)cc3C2)c(O)cc1O [Compound 63]")
"100 to 1000 nM"
>>> readout_value("C#Cc1c(F)ccc2cc(O)cc(-c3nc(OC)c4c(N5CC6CCC(C5)N6)nc(OCC5(CN6CCOC(CNCc7ccc8c(c7)CN(C(=O)c7cc(C(C)C)c(O)cc7O)C8)C6)CC5)nc4c3F)c12 (centres unmarked) [Compound 192]")
"100 to 1000 nM"

query: Tell me measured EC50 for C#Cc1cccc2cccc(-c3ncc4c(N5CC6CCC(C5)N6)nc(OCC5(CN6CCN(Cc7ccc(-n8c(C(=O)NCC)nnc8-c8cc(C(C)C)c(O)cc8O)cc7)CC6)CC5)nc4c3F)c12 [Compound 12] please.
result: < 100 nM

// data source = patent US20260070929A1
